Tgt: RAF proto-oncogene serine/threonine-protein kinase (Homo sapiens)
Sequence (P04049 whole entry): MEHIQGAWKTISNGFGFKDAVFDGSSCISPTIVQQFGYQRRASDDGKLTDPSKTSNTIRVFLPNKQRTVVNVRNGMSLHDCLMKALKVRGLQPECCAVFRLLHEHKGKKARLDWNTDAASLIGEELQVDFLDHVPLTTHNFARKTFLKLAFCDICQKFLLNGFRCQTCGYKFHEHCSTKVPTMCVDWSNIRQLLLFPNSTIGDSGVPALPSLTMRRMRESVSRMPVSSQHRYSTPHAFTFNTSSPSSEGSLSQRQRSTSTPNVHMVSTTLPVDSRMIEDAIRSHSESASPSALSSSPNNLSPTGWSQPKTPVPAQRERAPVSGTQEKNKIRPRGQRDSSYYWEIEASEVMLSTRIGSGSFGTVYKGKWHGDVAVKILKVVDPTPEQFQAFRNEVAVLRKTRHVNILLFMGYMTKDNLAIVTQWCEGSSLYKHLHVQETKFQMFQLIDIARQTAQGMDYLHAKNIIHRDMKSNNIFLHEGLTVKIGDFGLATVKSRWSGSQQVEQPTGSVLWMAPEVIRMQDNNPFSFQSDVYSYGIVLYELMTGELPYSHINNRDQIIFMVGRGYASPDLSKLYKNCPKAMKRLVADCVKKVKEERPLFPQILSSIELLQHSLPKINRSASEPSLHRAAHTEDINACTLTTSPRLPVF
Property Name: IC50 (nM)
Answers are plain numbers, in nM.

Solved cases below.
* COC(=O)c1nc(C(C)(C)C)sc1NC(=O)Nc1ccc(C)cc1 | 25000
* CNC(=O)Oc1cc(C)c(/C=C/c2cncc(C(=O)O)c2)c(C)c1 | 6
* CC(C)(C)c1cc(NC(=O)Nc2ccc(Oc3ccc(C(=O)O)cc3)cc2)no1 | 6300
* CNC(=O)Oc1cc(C)c(/C=C/c2cncc(C(N)=O)c2)c(C)c1 | 7

For every item in the list below, what is its measured IC50?
1. CN(c1ccncc1)c1ccc(NC(=O)Nc2cc(C(C)(C)C)on2)cc1
2. Cc1cc(O)cc(C)c1/C=C/c1cncc(C(N)=O)c1 [GW435821X]
3. CNC(=O)c1cncc(/C=C/c2c(C)cccc2C)c1 [GW445012X]
4. CNC(=O)Oc1cc(C)c(/C=C/c2cncc(C(=O)NC)c2)c(C)c1 [GW432441X]
5. CNC(=O)c1cncc(/C=C/c2c(Cl)cccc2Cl)c1 [GW445014X]
6. Cc1cc(-c2cccnc2)cc(C)c1/C=C/c1cncc(-c2nn[nH]n2)c1

Response line:
3500
158
250
10
251
630

Prompt line: Sample CNC(=O)Oc1cc(C)c(/C=C/c2cncc(C#N)c2)c(C)c1 — what was its IC50?
Response line: 40
